Attribution: patent US8580809B2

Target: mu opiate receptor (MOR) (Rattus norvegicus, UniProt P33535)
Construct: from tissue; host or cells: rat striatal membrane preparation
Sequence (P33535 whole entry): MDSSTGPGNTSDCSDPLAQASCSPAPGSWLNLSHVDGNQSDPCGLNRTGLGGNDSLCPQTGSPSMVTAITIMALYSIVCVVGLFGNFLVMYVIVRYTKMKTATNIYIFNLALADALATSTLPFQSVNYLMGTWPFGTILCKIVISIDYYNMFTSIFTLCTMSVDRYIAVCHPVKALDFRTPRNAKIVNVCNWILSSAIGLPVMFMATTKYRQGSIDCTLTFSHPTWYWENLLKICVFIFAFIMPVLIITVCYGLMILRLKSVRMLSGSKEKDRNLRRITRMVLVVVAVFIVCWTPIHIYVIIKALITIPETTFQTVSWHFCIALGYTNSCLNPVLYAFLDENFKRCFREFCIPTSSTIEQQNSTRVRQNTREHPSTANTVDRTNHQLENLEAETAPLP
Experiment: MOR agonist activity using [35S]GTPγS binding assay in striatal membranes
Type: biochemical
Details: 0.1 μM compound, striatal membranes
Description: To assess the mu opiate receptor (MOR) agonist activity of positive compounds from the FLNA screening, compounds were tested in a [^35S]GTPγS binding assay using striatal membranes. […] The immunocomplexes so formed were collected by incubation at 25° C. for 30 minutes with 40 μl of agarose-conjugated protein A/G beads and centrifugation at 5,000×g at 4° C. for 5 minutes. […] The radioactivity in the suspension was determined by liquid scintillation spectrometry. […]
endpointName: MOR agonist activity, [35S]GTPγS binding to Gαo, FLNA-binding compound as agonist 0.1 μM (%)
Numbers only; they are read as %.

stdin: Endpoint output: MOR agonist activity, [35S]GTPγS binding to Gαo, FLNA-binding compound as agonist 0.1 μM of O=S(=O)(c1ccc(Oc2ccccc2)cc1)N1CCC2(CC1)OCCN2S(=O)(=O)c1ccc(Oc2ccccc2)cc1 [Compound C0149M] . Value?
stdout: 209.8

stdin: Input CC(=O)c1ccc(S(=O)(=O)N2CCC3(CC2)OC(CN(C)C)CN3S(=O)(=O)c2ccc(C(C)=O)cc2)cc1 (centres unmarked)
stdout: 198.3

stdin: Input O=S(=O)(c1ccc(OC(F)(F)F)cc1)N1CCC2(CC1)OCCN2S(=O)(=O)c1ccc(OC(F)(F)F)cc1
stdout: 121.5

stdin: Input O=S(=O)(c1cccs1)N1CCC2(CC1)OCCN2S(=O)(=O)c1cccs1 [Compound C0141M]
stdout: 161.5

stdin: Input CS(=O)(=O)c1ccc(S(=O)(=O)N2CCC3(CC2)OCCN3S(=O)(=O)c2ccc(S(C)(=O)=O)cc2)cc1
stdout: 146.3

stdin: Input CC(=O)c1ccc(C(=O)N2CCC3(CC2)OCCN3S(=O)(=O)c2ccc(C(C)=O)cc2)cc1
stdout: 108.4

stdin: Input CC(C)c1ccc(S(=O)(=O)N2CCC3(CC2)OCCN3S(=O)(=O)c2ccc(C(C)C)cc2)cc1
stdout: 79.1

stdin: Input O=C(c1ccc([N+](=O)[O-])cc1)N1CCC2(CC1)OCCN2S(=O)(=O)c1ccc([N+](=O)[O-])cc1
stdout: 134.5

stdin: Input O=S(=O)(c1ccc(Br)cc1F)N1CCC2(CC1)OCCN2S(=O)(=O)c1ccc(Br)cc1F
stdout: 138.1

stdin: Input NS(=O)(=O)c1ccc(S(=O)(=O)N2CCC3(CC2)OCCN3S(=O)(=O)c2ccc(S(N)(=O)=O)cc2)cc1
stdout: 103.6

stdin: Input C[C@@H](NC(=O)[C@@H](N)Cc1ccc(O)cc1)C(=O)NCC(=O)N(C)[C@@H](Cc1ccccc1)C(=O)NCCO [DAMGO, reference compound]
stdout: 168.5

stdin: Input CC(=O)c1ccc(C(=O)N2CCOC23CCN(S(=O)(=O)c2ccc(C(C)=O)cc2)CC3)cc1
stdout: 104.0

stdin: Input COC(=O)c1ccc(S(=O)(=O)N2CCC3(CC2)OCCN3S(=O)(=O)c2ccc(C(=O)OC)cc2)cc1
stdout: 93.9

stdin: Input O=S(=O)(c1ccc(Br)cc1C(F)(F)F)N1CCC2(CC1)OCCN2S(=O)(=O)c1ccc(Br)cc1C(F)(F)F
stdout: 107.2

====

target: mu opiate receptor (MOR) (Rattus norvegicus, UniProt P33535); construct: from tissue; host or cells: rat striatal membrane preparation; test: MOR agonist activity using [35S]GTPγS binding assay in striatal membranes; type: biochemical; conditions: 1 μM compound + 1 μM β-funaltrexamine
endpointName: MOR agonist activity, [35S]GTPγS binding to Gαo, 1 μM + BFNA

stdin: Endpoint output: MOR agonist activity, [35S]GTPγS binding to Gαo, 1 μM + BFNA of CC(=O)c1ccc(S(=O)(=O)N2CCC3(CC2)NC(=O)CN3S(=O)(=O)c2ccc(C(C)=O)cc2)cc1 [Compound C0064] . Value?
stdout: 38.1%

stdin: Input COc1ccc(S(=O)(=O)N2CCC3(CC2)OCCN3S(=O)(=O)c2ccc(OC)cc2)cc1 [Compound 7866]
stdout: 62.4%

stdin: Input O=C1CN(Cc2ccccc2)C2(CCN(S(=O)(=O)c3cc(Cl)c(O)c(Cl)c3)CC2)N1 [Compound C0139M]
stdout: 51.0%

stdin: Input CC(=O)c1ccc(S(=O)(=O)N2CCC3(CC2)NC(=O)CN3Cc2ccccc2)cc1 [Compound C0085M]
stdout: 43.7%

stdin: Input CC(=O)c1ccc(C(=O)N2CCC3(CC2)OCCN3C(=O)c2ccc(C(C)=O)cc2)cc1 [Compound C0054]
stdout: 43.5%

stdin: Input CC(=O)c1ccc(C(=O)N2CCC3(CC2)OCCN3S(=O)(=O)c2ccc(C(C)=O)cc2)cc1 [Compound C0052]
stdout: 42.7%

stdin: Input O=S(=O)(c1ccc2ccccc2c1)N1CCC2(CC1)OCCN2S(=O)(=O)c1ccc2ccccc2c1 [Compound C0140M]
stdout: 83.0%

stdin: Input N#Cc1ccc(S(=O)(=O)N2CCC3(CC2)OCCN3S(=O)(=O)c2ccc(C#N)cc2)cc1 [Compound C0008]
stdout: 2.8%

stdin: Input O=S(=O)(c1ccc(Br)cc1C(F)(F)F)N1CCC2(CC1)OCCN2S(=O)(=O)c1ccc(Br)cc1C(F)(F)F [Compound C0068]
stdout: 165.9%

====

biological target: mu opiate receptor (MOR) (Rattus norvegicus, UniProt P33535); construct: from tissue; host or cells: rat striatal membrane preparation; test: MOR agonist activity using [35S]GTPγS binding assay in striatal membranes; assay type: biochemical; conditions: 0.1 μM compound, striatal membranes
Field: MOR agonist activity, [35S]GTPγS binding to Gαo, FLNA-binding compound as agonist 0.1 μM. Provide a value for each of the molecules that follow.

stdin: Endpoint output: MOR agonist activity, [35S]GTPγS binding to Gαo, FLNA-binding compound as agonist 0.1 μM of COc1ccc(C(=O)N2CCC3(CC2)OCCN3C(=O)c2ccc(OC)cc2)cc1 . Value?
stdout: 153.8%

stdin: Input COc1ccc(S(=O)(=O)N2CCC3(CC2)OCCN3S(=O)(=O)c2ccc(C(C)=O)cc2)cc1
stdout: 209.1%

stdin: Input O=S(=O)(c1ccc(C(F)(F)F)cc1Br)N1CCC2(CC1)OCCN2S(=O)(=O)c1ccc(C(F)(F)F)cc1Br
stdout: 276.3%

stdin: Input COc1ccc(C(=O)N2CCOC23CCN(S(=O)(=O)c2ccc(OC)cc2)CC3)cc1
stdout: 104.4%

stdin: Input CC(=O)c1ccc(C(=O)N2CCC3(CC2)OCCN3C(=O)c2ccc(C(C)=O)cc2)cc1
stdout: 68.2%

stdin: Input COc1ccc(C(=O)N2CCC3(CC2)OCCN3S(=O)(=O)c2ccc(OC)cc2)cc1
stdout: 195.5%

stdin: Input O=S(=O)(c1ccc(Br)c(C(F)(F)F)c1)N1CCC2(CC1)OCCN2S(=O)(=O)c1ccc(Br)c(C(F)(F)F)c1
stdout: 192.7%

stdin: Input CC(=O)c1ccc(S(=O)(=O)N2CCC3(CC2)NC(=O)CN3S(=O)(=O)c2ccc(C(C)=O)cc2)cc1
stdout: 213.8%

stdin: Input COc1ccc(NC(=O)N2CCC3(CC2)OCCN3C(=O)Nc2ccc(OC)cc2)cc1 [Compound C0151M]
stdout: 346.8%

stdin: Input N#Cc1ccccc1S(=O)(=O)N1CCC2(CC1)OCCN2S(=O)(=O)c1ccccc1C#N
stdout: 122.0%

stdin: Input O=S(=O)(c1ccc(-c2ccccc2)cc1)N1CCC2(CC1)OCCN2S(=O)(=O)c1ccc(-c2ccccc2)cc1
stdout: 136.5%

stdin: Input CC(=O)Nc1ccc(S(=O)(=O)N2CCC3(CC2)OCCN3S(=O)(=O)c2ccc(NC(C)=O)cc2)cc1
stdout: 156.6%

stdin: Input COc1cccc(S(=O)(=O)N2CCC3(CC2)OCCN3S(=O)(=O)c2cccc(OC)c2)c1
stdout: 88.4%

stdin: Input O=S(=O)(c1csc2ccccc12)N1CCC2(CC1)OCCN2S(=O)(=O)c1csc2ccccc12 [Compound C0150M]
stdout: 167.1%

====

target: mu opiate receptor (MOR) (Rattus norvegicus); construct: from tissue; host or cells: rat striatal membrane preparation; assay: MOR agonist activity using [35S]GTPγS binding assay in striatal membranes; type: biochemical; settings: 1 μM compound + 1 μM β-funaltrexamine
Field: MOR agonist activity, [35S]GTPγS binding to Gαo, 1 μM + BFNA. Provide a value for each of the compounds that follow.
Numbers only; they are read as %.

stdin: Endpoint output: MOR agonist activity, [35S]GTPγS binding to Gαo, 1 μM + BFNA of O=S(=O)(c1ccc(F)c(F)c1)N1CCC2(CC1)OCCN2S(=O)(=O)c1ccc(F)c(F)c1 [Compound C0072] . Value?
stdout: 67.1

stdin: Input CS(=O)(=O)c1ccc(S(=O)(=O)N2CCC3(CC2)OCCN3S(=O)(=O)c2ccc(S(C)(=O)=O)cc2)cc1 [Compound C0009]
stdout: 26.4

stdin: Input COc1ccc(S(=O)(=O)N2CCC3(CC2)OCCN3S(=O)(=O)c2ccc(OC)c(OC)c2)cc1OC [Compound C0049]
stdout: 81.0
